Attribution: paper PMC10067855

TEST_TARGET: AmGH33A (Akkermansia muciniphila, UniProt B2UPI5)
Sequence (B2UPI5 39-419): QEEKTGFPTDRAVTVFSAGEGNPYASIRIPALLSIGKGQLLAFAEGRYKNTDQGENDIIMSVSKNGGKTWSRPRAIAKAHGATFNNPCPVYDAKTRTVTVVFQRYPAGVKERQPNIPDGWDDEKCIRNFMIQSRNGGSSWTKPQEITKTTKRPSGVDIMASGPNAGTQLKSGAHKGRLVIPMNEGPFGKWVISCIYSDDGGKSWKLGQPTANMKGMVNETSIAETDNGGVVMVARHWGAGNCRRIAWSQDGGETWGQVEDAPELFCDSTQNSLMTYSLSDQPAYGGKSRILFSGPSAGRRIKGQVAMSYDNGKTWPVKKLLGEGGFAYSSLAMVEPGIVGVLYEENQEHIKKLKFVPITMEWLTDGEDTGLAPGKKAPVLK
pIC50: −log10 of the molar value.
MEASUREMENT_TYPE: pIC50

{"ITEM_SMILES": "CC(=O)N[C@H]1[C@H]([C@H](O)[C@H](O)CO)OC(C(=O)O)=C[C@@H]1O", "ASSAY_VALUE": "> 3.70"}

----------
TEST_TARGET: AmGH29D (Akkermansia muciniphila, UniProt B2UQE4)
Sequence (B2UQE4 25-704): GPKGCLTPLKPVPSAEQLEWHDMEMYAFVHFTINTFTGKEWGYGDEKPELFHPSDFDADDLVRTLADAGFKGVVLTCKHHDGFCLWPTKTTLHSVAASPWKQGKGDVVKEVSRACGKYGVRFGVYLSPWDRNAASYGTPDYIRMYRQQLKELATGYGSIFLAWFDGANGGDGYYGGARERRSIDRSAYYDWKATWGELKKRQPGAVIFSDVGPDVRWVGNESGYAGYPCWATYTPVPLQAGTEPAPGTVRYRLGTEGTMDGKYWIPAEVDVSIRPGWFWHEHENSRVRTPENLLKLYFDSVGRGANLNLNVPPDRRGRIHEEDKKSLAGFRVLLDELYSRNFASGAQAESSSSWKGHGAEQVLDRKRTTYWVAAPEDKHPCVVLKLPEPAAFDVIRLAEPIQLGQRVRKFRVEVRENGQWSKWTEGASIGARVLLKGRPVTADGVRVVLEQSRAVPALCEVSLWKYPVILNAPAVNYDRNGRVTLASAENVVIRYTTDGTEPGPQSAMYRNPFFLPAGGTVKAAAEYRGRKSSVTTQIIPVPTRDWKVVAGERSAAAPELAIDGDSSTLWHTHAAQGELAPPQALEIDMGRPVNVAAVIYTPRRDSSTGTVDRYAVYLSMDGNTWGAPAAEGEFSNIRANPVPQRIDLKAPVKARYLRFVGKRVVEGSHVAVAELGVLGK
pIC50: −log10 of the molar value.

{"ITEM_SMILES": "C[C@@H]1NC[C@@H](O)[C@H](O)[C@@H]1O", "pIC50": "> 4.27"}
